Tested on: human hepatocyte cell line (HepG2)
Assay: HepG2 cell inhibition assay (CCK-8 cell viability)
Type: cell-based
Details: 50% growth inhibition, 24 hours
# label = 1 if HepG2 cell TD50 >= 9 µg/mL else -1

entry_smiles=CN1CCC([S][Au]=[P](C)(C)C)CC1 assigned_label=1
entry_smiles=CCOC(=O)[C@H](C[S][Au]=[P](C)(C)C)NC(C)=O assigned_label=1
entry_smiles=C[P](C)(C)=[Au][S]c1nc2ncccc2s1 assigned_label=-1
entry_smiles=C[P](C)(C)=[Au][S]c1ccccc1 assigned_label=-1
entry_smiles=C[P](C)(C)=[Au][S]c1nc2cccnc2[nH]1 assigned_label=1
entry_smiles=CCOC(=O)[C@H](C[Se][Au]=[P](C)(C)C)NC(C)=O assigned_label=1
entry_smiles=C[P](C)(C)=[Au][S]c1ncccn1 assigned_label=-1
entry_smiles=C[P](C)(C)=[Au][S]c1nc2ccccc2[nH]1 assigned_label=-1
entry_smiles=COC(=O)[C@H](C[S][Au]=[P](C)(C)C)NC(C)=O assigned_label=1
entry_smiles=C[P](C)(C)=[Au][S]c1cccnc1 assigned_label=-1
entry_smiles=C[P](C)(C)=[Au][S]c1ccccn1 assigned_label=-1
entry_smiles=C[P](C)(C)=[Au][S][C@H]1CC[C@H](O)CC1 assigned_label=-1
entry_smiles=CC(=O)N[C@@H](C[S][Au]=[P](C)(C)C)C(N)=O assigned_label=1
entry_smiles=C[P](C)(C)=[Au][S]C1CCOCC1 assigned_label=-1
